Entries and their boiling point

Solved cases (5 shown):
-- ask Item C1=COCCC1 has what recorded boiling point?
-- reply 86 °C

-- ask Item CCOC(OCC)(OCC)OCC has what recorded boiling point?
-- reply 160 °C

-- ask Item OCCC(F)(F)F has what recorded boiling point?
-- reply 99.5 °C

-- ask Item Cc1ccnc(C)c1C has what recorded boiling point?
-- reply 192 °C

-- ask Item CCOC(=O)COC has what recorded boiling point?
-- reply 142 °C

***
-- ask Item CCCC(C)=C(CC)C(C)=O has what recorded boiling point?
-- reply 190 °C

-- ask Item C=C(C)C(=O)OCC(C)C has what recorded boiling point?
-- reply 155 °C

-- ask Item S=C1NCCN1 has what recorded boiling point?
-- reply 347 °C

-- ask Item CCCCC(=O)OCC has what recorded boiling point?
-- reply 146 °C

-- ask Item CCC=CC(C)(C)C has what recorded boiling point?
-- reply 103 °C

-- ask Item C=CCC(O)C=C (stereo not given) has what recorded boiling point?
-- reply 134 °C

-- ask Item c1ccc(Cc2cccc3ccccc23)cc1 has what recorded boiling point?
-- reply 350 °C

-- ask Item CCOC(=O)c1cccc(Cl)c1 has what recorded boiling point?
-- reply 243 °C

-- ask Item O=C(F)c1ccccc1 has what recorded boiling point?
-- reply 154 °C

-- ask Item CCCCCCCCCCCCCCCCCCCCCCCCCCCCCCCC has what recorded boiling point?
-- reply 467 °C

-- ask Item CC(=O)Oc1ccccc1 has what recorded boiling point?
-- reply 196 °C

-- ask Item CCC(Br)C(C)Br (stereo not given) has what recorded boiling point?
-- reply 178 °C

-- ask Item COC(=O)c1cccc(C)c1O has what recorded boiling point?
-- reply 235 °C
